Target: P2X purinoceptor 3 (Homo sapiens, UniProt P56373)
Sequence (P56373 whole entry): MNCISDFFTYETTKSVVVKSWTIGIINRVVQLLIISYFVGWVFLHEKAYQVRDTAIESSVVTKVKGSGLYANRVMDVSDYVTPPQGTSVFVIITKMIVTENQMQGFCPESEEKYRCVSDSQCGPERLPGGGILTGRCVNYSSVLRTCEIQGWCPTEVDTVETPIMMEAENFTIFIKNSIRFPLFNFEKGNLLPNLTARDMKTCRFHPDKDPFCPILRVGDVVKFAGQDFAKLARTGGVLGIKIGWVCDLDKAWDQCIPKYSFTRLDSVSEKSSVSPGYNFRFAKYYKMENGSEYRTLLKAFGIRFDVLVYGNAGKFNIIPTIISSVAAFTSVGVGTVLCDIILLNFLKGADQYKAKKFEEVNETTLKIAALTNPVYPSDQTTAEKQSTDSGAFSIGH
Test: Antagonist activity at human P2X3 receptor expressed in 1321N1 cells assessed as inhibition of ATP-induced calcium flux measured for 30 secs at 0.4 secs intervals by Flou-4-AM dye based fluorescence assay
Type: cell-based
Settings: read-out: IC50
ASSAY_ENDPOINT: IC50 (nM)
Number only, in nM; omit the unit.

Input line: Which measured IC50 value corresponds to CC(=O)[C@H]1CC[C@H]2[C@@H]3CCC4=CC(=O)CC[C@]4(C)[C@H]3CC[C@]12C ?
Output line: 1600

Input line: Next molecule: COc1ccc(-c2ccc3c(NC(=O)CC45CC6CC(CC(C6)C4)C5)cccc3n2)cc1
Output line: 3000

From: ChEMBL document CHEMBL4152208
